assay-name: qHTS of pediatric cancer cell lines to identify multiple opportunities for drug repurposing: Primary screen for TC32 cells (AID 1347089); note: nearly all actives have a fitted effect of over 60% in size
test-conditions: TC32 Ewing sarcoma viability, CellTiter-Glo luminescence, 48 h; series mostly up to 45.8 µM
Records with an inconclusive call do not appear. Active and inactive are the calls of the source. Calls come from the whole dose curve; as a rule, active = well fitted cell-killing curve with a large enough effect; inconclusive = small, poorly fitted or top-dose-only effect; inactive = flat fitted curve, though single readings scatter.
readout: outcome

Worked cases, outcome given:
substance_smiles=O=C(O)c1ccc(=O)[nH]c1 observed_result=inactive
substance_smiles=O=c1oc2ccccc2c(O)c1Cc1c(O)c2ccccc2oc1=O observed_result=inactive
substance_smiles=CCN(CCO)CCn1c(Cc2ccccc2)nc2c1c(=O)n(C)c(=O)n2C observed_result=inactive
substance_smiles=COc1ccc2c(c1OC)C(=O)O[C@H]2[C@@H]1c2cc3c(cc2CCN1C)OCO3 observed_result=inactive
substance_smiles=CCCCCCC(=O)CCCCCC/C=C/C[C@@H](O)[C@H](O)[C@@](N)(CO)C(=O)O observed_result=inactive

We now examine a further compound.
Record summary for `COc1cccc(C(=O)CCN[C@@H](C)[C@H](O)c2ccccc2)c1` : reported outcome = inactive
